Molecular target: CsrA-Hetero (CsrA-WT-His6/CsrA-N55D-strep) N55D (Bacillus subtilis (3610?)) (UniProt P33911+P33911)
Sequence 1: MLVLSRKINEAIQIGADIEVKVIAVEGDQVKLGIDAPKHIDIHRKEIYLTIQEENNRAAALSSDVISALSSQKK
Sequence 2: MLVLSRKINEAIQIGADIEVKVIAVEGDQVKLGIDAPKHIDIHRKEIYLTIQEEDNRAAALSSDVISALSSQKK
Assay: EMSA
Conditions: 40 mM Tris-HCl pH 7.5, 4 mM MgCl2, 100 mM KCl, 20 ng/ul yeast RNA, 20 mM DTT, 10% glycerol, 4 U RNase inhibitor, 20 pM RNA, 37 C 30 min (FliW added for a …)
property.label: pKd
The scale used: pKd is minus the common logarithm of the concentration in molar units.

**Query** pKd for GGUAGCCGGGAGGAGGCGCAAAAGACUCAGCCAGUUACAAAAUAAGGGCACAAGGACGUGCCUUAACAACAUAUUCAGGGAGGAACAAAACAAUGAGAAUU [hag 5' UTR transcript +1 to +100] ?
**Result** 6.34

====

Biological target: CsrA-WT-His6 (Bacillus subtilis (3610?))
Sequence: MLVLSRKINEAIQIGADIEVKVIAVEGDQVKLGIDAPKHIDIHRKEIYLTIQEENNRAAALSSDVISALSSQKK
Assay: EMSA
Conditions: 40 mM Tris-HCl pH 7.5, 4 mM MgCl2, 100 mM KCl, 20 ng/ul yeast RNA, 20 mM DTT, 10% glycerol, 4 U RNase inhibitor, 20 pM RNA, 37 C 30 min (FliW added for a …)
property.label: Kd

**Query** Kd for GGUAGCCGGGAGGAGGCGCAAAAGACUCAGCCAGUUACAAAAUAAGGGCACAAGGACGUGCCUUAACAACAUAUUCAGGGAGGAACAAAACAAUGAGAAUU [hag 5' UTR transcript +1 to +100] ?
**Result** 287 nM

====

Molecular target: FliW (Bacillus subtilis (3610?))
Sequence: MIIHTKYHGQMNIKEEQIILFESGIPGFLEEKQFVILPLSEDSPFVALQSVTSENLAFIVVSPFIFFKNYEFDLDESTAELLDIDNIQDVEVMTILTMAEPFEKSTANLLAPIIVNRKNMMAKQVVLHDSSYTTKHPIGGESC
Assay: EMSA
Settings: 40 mM Tris-HCl pH 7.5, 4 mM MgCl2, 100 mM KCl, 20 ng/ul yeast RNA, 20 mM DTT, 10% glycerol, 4 U RNase inhibitor, 20 pM RNA, 37 C 30 min (FliW added for a …)
property.label: Kd (nM)
Numeric only. Scale: nM

**Query** Give Kd (FliW (Bacillus subtilis (3610?))) of the following sequence: GGUAGCCGGGAGGAGGCGCAAAAGACUCAGCCAGUUACAAAAUAAGGGCACAAGGACGUGCCUUAACAACAUAUUCAGGGAGGAACAAAACAAUGAGAAUU [hag 5' UTR transcript +1 to +100]
**Result** 1110
